experiment: solvent given as SMILES; conditions: in CC1CCCO1
PROPERTY_NAME: emission maximum (nm)

(A) CC1=CC(/C=C/c2ccc(C)cc2)=[N+]2C1=C(c1ccccc1)c1c(C)cc(/C=C/c3ccc(C)cc3)n1[B-]2(F)F
(B) O=S1(=O)c2ccc(-c3ccc4c(c3)c3ccccc3n4-c3ccccc3)cc2C2(c3cc(-c4ccc5c(c4)c4ccccc4n5-c4ccccc4)ccc31)c1cc(-c3ccc4c(c3)c3ccccc3n4-c3ccccc3)ccc1S(=O)(=O)c1ccc(-c3ccc4c(c3)c3ccccc3n4-c3ccccc3)cc12
In: Select one: A or B . Criterion: greater recorded emission maximum. Use the label to indicate which entry you chose.
Out: A
(A: 645 nm, B: 413 nm)

(a) O=c1cc2c(S(=O)(=O)O)c(O)c3cccc4ccc(o1)c2c43
(b) c1ccc2c(c1)-c1ccccc1C21c2ccccc2-c2cnccc21
In: Select one: a or b . Criterion: greater recorded emission maximum. Use the label to indicate which entry you chose.
Out: a

----------
assay: solvent given as SMILES; conditions: in ClCCCl
PROPERTY_NAME: emission maximum (nm)

Cc1ccc2nc3c(=O)[nH]c(=O)[nH]c3nc2c1 | 425
CCn1c(=O)nc2n(C)c3cc(C)ccc3nc-2c1=O | 531
CCCCCCOc1ccc(C#Cc2ccc(C#Cc3ccc(OCCCCCC)c(OCCCCCC)c3)c3nsnc23)cc1OCCCCCC | 581
Cc1c2oc3c(C)c(N)cc(C(=O)NC4OC(=O)C(C(C)C)N(C)C(=O)CN(C)C(=O)C5CCCN5C(=O)C(C(C)C)NC4=O)c3nc-2c(C(=O)NC2OC(=O)C(C(C)C)N(C)C(=O)CN(C)C(=O)C3CCCN3C(=O)C(C(C)C)NC2=O)c(N)c1=O (stereo not given) | 609.65
Cc1cccc2nc3c(=O)[nH]c(=O)[nH]c3nc12 | 450

----------
assay: solvent given as SMILES; conditions: in ClCCl
PROPERTY_NAME: emission maximum (nm)

(A) COC(=O)/C=C/C1=CC2=C(c3c(C)cc(C)cc3C)c3cccn3[B-](F)(F)[N+]2=C1
(B) CCCCc1ccc2ccc3c(CCCC)cc(CCCC)c4ccc1c2c34
In: Select one: A or B . Criterion: greater recorded emission maximum. Use the label to indicate which entry you chose.
Out: A

(P) N#CC(C#N)=Cc1ccc2c(c1)c1ccccc1n2-c1cccc2ccccc12
(Q) CCCCCCOc1cc(N(CC)CC)ccc1/C=C(\C#N)c1ccc(/C=C/C(=C(C#N)C#N)c2ccc3c(c2)c2ccccc2n3CC)s1
In: Select one: P or Q . Criterion: greater recorded emission maximum. Use the label to indicate which entry you chose.
Out: Q
(Q: 742 nm, P: 473 nm)

----------
test: solvent given as SMILES; settings: in ClCCl
PROPERTY_NAME: emission maximum (nm)

Example compounds with recorded emission maximum:
COC(=O)CCC1=CC(C#Cc2cccs2)=[N+]2C1=Cc1c(CCC(=O)OC)cc(C#Cc3cccs3)n1[B-]2(F)F | 681
COc1cc2cc(OC)c(C#Cc3ccc([N+](=O)[O-])cc3)cc2cc1C#Cc1ccc([N+](=O)[O-])cc1 | 593
Cn1nc(-c2ccccc2)cc1-c1ccccc1 | 338
COc1cc2c(cc1OC)C1=C[C@H](c3ccccc3)C3(C(C#N)=C(C#N)N1CC2)c1ccccc1-c1ccccc13 | 410
Brc1ccc(-c2nc(-c3ccc(C#Cc4ccc(-n5c6ccccc6c6ccccc65)cc4)cc3)nc(-c3ccc(C#Cc4ccc(-n5c6ccccc6c6ccccc65)cc4)cc3)n2)cc1 | 498
CN(C)c1ccc2c3c(ccc2c1)C(=O)CCC3 | 440

(1) C(=C\c1ncc2ccccc2n1)/c1ccc(N(c2ccccc2)c2ccccc2)cc1
(2) Cc1c2cc3c(-c4ccccc4)c4c(c(-c5ccccc5)c3cc2c2n1[B-](F)(F)[n+]1c(C)c3cc5c(-c6ccccc6)c6c7cccc8cccc(c6c(-c6ccccc6)c5cc3c1=C2c1ccccc1)c87)-c1cccc2cccc-4c12
In: Hey, which is lower on measured emission maximum, 1 or 2 ? Use the label to indicate which entry you chose.
Out: 1
(1: 520 nm, 2: 783 nm)
